# System: Rattus norvegicus
# Protocol description: The compound was evaluated for the anticonflict behavior in male wistar rats as rate of responses (timeout) following dose of 5.0 mg/kg po
# Type: functional
# Design: unit: responses/min
Measured quantity: Activity
Lab note: write the figure by itself, no unit.

Q) Record CNC1=Nc2ccc(Cl)cc2C(c2ccccc2)=[N+]([O-])C1 [CHLORDIAZEPOXIDE] : what is its Activity with Rattus norvegicus?
A) 2.2

Q) Entry "CN1CCN(C2=Nc3cc(Cl)ccc3Nc3nn(C)cc32)CC1" , system Rattus norvegicus: what Activity was measured?
A) 7.9

Q) Give the reported Activity for "CN1CCN(C2=Nc3cc(F)ccc3Nc3nn(C)cc32)CC1" (system: Rattus norvegicus).
A) 5.7

Q) Lab note: need Activity for "CN1CCN(C2=Nc3cc(Br)ccc3Nc3nn(C)cc32)CC1" on Rattus norvegicus, anyone have it?
A) 6
